experiment: drug combination growth inhibition, ovarian cancer – cell-based, oncology-focused library, rucaparib conditional, profiling panel (AID 1508598); settings: patient-derived ovarian cancer cells, CellTiter-Glo viability, 144 h; at 1.25 µM; OCI-P5x cells; with rucaparib 20 µM; stronger effect = lower value; 100% = cells with rucaparib alone
MEASURED PARAMETER: viability (%)

{"COMPOUND": "CC1=C(/C=C/C(C)=C\\C=C\\C(C)=C/C(=O)O)C(C)(C)CCC1", "NUMERIC RESULT": 92.6}
{"COMPOUND": "c1ccc(Cn2c(-c3ccc(OC[C@H](C4CCNCC4)n4c(-c5ccccc5)nc5ccccc54)cc3)nc3ccccc32)cc1", "NUMERIC RESULT": 33.8}
{"COMPOUND": "Nc1nonc1C(=Nc1ccc(F)c(Cl)c1)NO", "NUMERIC RESULT": 91.9}
{"COMPOUND": "O=C(O)c1cc(I)ccc1NC(=O)[C@H](Cc1ccccc1)NCc1ccccc1", "NUMERIC RESULT": 80.7}
{"COMPOUND": "CCc1c2c(nc3ccc(OC(=O)N4CCC(N5CCCCC5)CC4)cc13)-c1cc3c(c(=O)n1C2)COC(=O)[C@@]3(O)CC", "NUMERIC RESULT": 48.7}
{"COMPOUND": "CC(C)CC(CC(=O)NO)C(=O)N[C@@H](Cc1ccc2ccccc2c1)C(=O)N[C@@H](C)C(=O)NCCN (some centres not stated)", "NUMERIC RESULT": 85.1}
{"COMPOUND": "CN(C)CCSSCCNC(=O)C1CCN(C(=O)CSc2ccc(Cl)cc2)CC1", "NUMERIC RESULT": 93.2}

====

Reported values of z-score for individual entries
experiment: MELAS cybrid and Rieske KO viability enhancers – cell-based, MELAS cybrids, Rieske KO mouse fibroblasts, CellTiter-Glo, primary screen (AID 1508586); conditions: Rieske KO mouse fibroblast survival, low glucose, CellTiter-Glo 72 h;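 note: z relative to plate mean and SD of compound and empty wells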
MEASURED PARAMETER: z-score

{"COMPOUND": "O=C1Cc2c([nH]c3ccc(Br)cc23)-c2ncccc2N1", "NUMERIC RESULT": -2.27}
{"COMPOUND": "C#C[C@@]1(OC(C)=O)CC[C@H]2[C@@H]3CCC4=CC(OC(C)=O)CC[C@@H]4[C@@H]3CC[C@@]21C (some centres undefined)", "NUMERIC RESULT": -0.148}
{"COMPOUND": "CC1(C)S[C@@H]2C(NC(=O)C(N)c3ccc(O)cc3)C(=O)N2C1C(=O)O (some centres undefined)", "NUMERIC RESULT": 0.721}
{"COMPOUND": "O=C1N[C@@H](COCc2ccccc2)C(=O)N2C[C@@H](NCc3cnn(-c4cccc(F)c4)c3)C[C@@H]12", "NUMERIC RESULT": -0.436}
{"COMPOUND": "CC1(C)S[C@@H]2[C@H](NC(=O)[C@H](NC(=O)N3CCNC3=O)c3ccccc3)C(=O)N2[C@H]1C(=O)O", "NUMERIC RESULT": -0.381}
{"COMPOUND": "Cc1ccc(S(=O)(=O)c2ccc([N+](=O)[O-])o2)cc1", "NUMERIC RESULT": -6.94}
{"COMPOUND": "CO/N=C(\\C(=O)N[C@@H]1C(=O)N2C(C(=O)OC(C)OC(C)=O)=C(COC(N)=O)CS[C@H]12)c1ccco1 (some centres undefined)", "NUMERIC RESULT": 0.0681}
{"COMPOUND": "Cc1csc(-c2cc(C(=O)NCCN3CCCCC3)cc(S(=O)(=O)N3CCOCC3)c2)c1", "NUMERIC RESULT": -0.233}
{"COMPOUND": "O=C1NC(=O)C(=Cc2ccc3c(c2)OC(F)(F)O3)S1", "NUMERIC RESULT": -0.248}
